- target-system: T1, human ferroportin 1 (human, UniProt Q9NP59 1-571)
- T1 construct: also called human FPN1; FPN1
- T1 sequence: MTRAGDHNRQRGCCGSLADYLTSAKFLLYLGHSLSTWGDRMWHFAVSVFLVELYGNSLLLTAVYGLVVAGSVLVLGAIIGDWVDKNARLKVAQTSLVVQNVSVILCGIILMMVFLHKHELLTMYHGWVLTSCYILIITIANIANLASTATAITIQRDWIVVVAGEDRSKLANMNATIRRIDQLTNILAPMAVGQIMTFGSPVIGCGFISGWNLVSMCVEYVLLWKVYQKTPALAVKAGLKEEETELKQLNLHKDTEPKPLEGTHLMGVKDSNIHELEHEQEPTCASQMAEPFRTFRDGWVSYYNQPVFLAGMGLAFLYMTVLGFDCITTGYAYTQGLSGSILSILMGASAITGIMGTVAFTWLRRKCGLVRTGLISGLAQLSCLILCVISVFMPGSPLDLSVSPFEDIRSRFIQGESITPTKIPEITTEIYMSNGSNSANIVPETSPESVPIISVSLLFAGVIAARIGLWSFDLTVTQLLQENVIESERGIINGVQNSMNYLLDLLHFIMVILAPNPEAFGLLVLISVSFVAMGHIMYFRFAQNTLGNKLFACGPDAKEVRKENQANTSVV
- procedure-text: inhibition of binding of 30 nM biotinylated hepcidin to FPN/293 cells, ELISA of lysate; antibody at 500 nM; mean
measurement-label: % Inhibition (%)

Mab Combi11 (antibody, human IgG4 S228P, kappa, F234A L235A, V domains shown) VH: QVQLVQSGAEVKKPGSSVKVSCKASGYAFTSFLIEWVRQAPGQGLEWMGTSNPRTGRTKYKSKFRGRVTITADKSTSTAYMELSSLRSEDTAVYYCAREFFDYWGQGTTVTVSS VL: DIQMTQSPSSLSASVGDRVTITCRASKSISKYTAWYQQKPGKAPKLLIYAGSKRHWGVPSRFSGSGSGTDFTLTISSLQPEDFATYYCQQHNEYPYTFGGGTKVEIKR :: 81.6
Mab L2.2-4 (antibody, human IgG4 S228P, kappa, F234A L235A, V domains shown) VH: QVQLVQSGAEVKKPGSSVKVSCKASGYAFTSFLIEWVRQAPGQGLEWMGTSNPRTGGRKYKEKFRGRVTITADKSTSTAYMELSSLRSEDTAVYYCAREFFDYWGQGTTVTVSS VL: DIQMTQSPSSLSASVGDRVTITCRASKSISKYTAWYQQKPGKAPKLLIYAGSKLRSGVPSRFSGSGSGTDFTLTISSLQPEDFATYYCQQHNEYPYTFGGGTKVEIKR :: 99.8
Mab 4A10-3 (antibody, human IgG4 S228P, kappa, F234A L235A, V domains shown) VH: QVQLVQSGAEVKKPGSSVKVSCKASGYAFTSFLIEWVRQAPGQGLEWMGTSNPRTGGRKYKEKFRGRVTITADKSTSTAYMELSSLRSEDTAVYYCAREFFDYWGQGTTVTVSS VL: DIQMTQSPSSLSASVGDRVTITCRASKSISKYTAWYQQKPGKAPKLLIYAGSKLHWGVPSRFSGSGSGTDFTLTISSLQPEDFATYYCQQHNEYPYTFGGGTKVEIKR :: 84.9
Mab 3D8 (antibody, human IgG4 S228P, kappa, F234A L235A, V domains shown, Humanized form of mouse 1G9 with human heavy chain framework VH1-69 and light chain framework O2; also called human 3D8) VH: QVQLVQSGAEVKKPGSSVKVSCKASGYAFTSFLIEWVRQAPGQGLEWMGTSNPRTGGTKYKEKFRGRVTITADKSTSTAYMELSSLRSEDTAVYYCAREFFDYWGQGTTVTVSS VL: DIQMTQSPSSLSASVGDRVTITCRASKSISKYTAWYQQKPGKAPKLLIYAGSKLHSGVPSRFSGSGSGTDFTLTISSLQPEDFATYYCQQHNEYPYTFGGGTKVEIKR :: 64.7

The measured values listed here are drawn from patent US20130122013A1.
